ASSAYED SYSTEM: HLA-B*15:17
ASSAY TEXT: IEDB peptide-MHC binding, purified MHC/direct/fluorescence; filed as Kd, often an IC50 or EC50 that approximates it; bounds were set here for any values at or beyond the usual limits of such assays
CONDITION SUMMARY: source organism: Escherichia coli O157:H7
ENDPOINT: pKd
In simple prose, pKd is minus the logarithm base ten of a concentration in moles per litre.

Dear colleague, I am looking for the recorded pKd of the following sequence: `KTTIKFHPW`
7.56

* * *

ASSAYED SYSTEM: HLA-A*03:01
ASSAY TEXT: IEDB peptide-MHC binding, purified MHC/competitive/radioactivity; filed as Kd, often an IC50 or EC50 that approximates it; bounds were set here for any values at or beyond the usual limits of such assays
CONDITION SUMMARY: source organism: Vaccinia virus Copenhagen
ENDPOINT: Kd (nM)
State just the number; it will be interpreted in nM.

Dear colleague, I am looking for the recorded Kd of the following sequence: `YLLVKWYKK`
113

* * *

ASSAYED SYSTEM: HLA-B*58:01
ASSAY TEXT: IEDB peptide-MHC binding, purified MHC/competitive/radioactivity; filed as Kd, often an IC50 or EC50 that approximates it; bounds were set here for any values at or beyond the usual limits of such assays
CONDITION SUMMARY: source organism: Dengue virus 2 Jamaica/1409/1983
ENDPOINT: Kd (nM)
State just the number; it will be interpreted in nM.

Known results for sequences:
seq_text=GAAFSGVSW endpoint=Kd unit_abbreviation=nM reported_measurement=126
seq_text=SASSMVNGVV endpoint=Kd unit_abbreviation=nM reported_measurement=2040
seq_text=MLAVWNRVW endpoint=Kd unit_abbreviation=nM reported_measurement=113
seq_text=KATREAQKRA endpoint=Kd unit_abbreviation=nM reported_measurement=10700
seq_text=FITDNVHTW endpoint=Kd unit_abbreviation=nM reported_measurement=17.5

Query sequence follows.
Dear colleague, I am looking for the recorded Kd of the following sequence: `MAILGDTAW`
3.34

* * *

ASSAYED SYSTEM: HLA-A*26:01
ASSAY TEXT: IEDB peptide-MHC binding, purified MHC/competitive/radioactivity; filed as Kd, often an IC50 or EC50 that approximates it; bounds were set here for any values at or beyond the usual limits of such assays
CONDITION SUMMARY: source organism: Dengue virus 3 Martinique/1243/1999
pKd: −log10 of the molar value.
ENDPOINT: pKd

Dear colleague, I am looking for the recorded pKd of the following sequence: `FTILALFLAH`
≤ 4.68

* * *

ASSAYED SYSTEM: HLA-B*07:02
ASSAY TEXT: IEDB peptide-MHC binding, purified MHC/direct/fluorescence; filed as Kd, often an IC50 or EC50 that approximates it; bounds were set here for any values at or beyond the usual limits of such assays
CONDITION SUMMARY: source organism: Vibrio vulnificus
ENDPOINT: pKd
In simple prose, pKd is minus the logarithm base ten of a concentration in moles per litre.

Dear colleague, I am looking for the recorded pKd of the following sequence: `YQRALHTSI`
5.15

* * *

ASSAYED SYSTEM: HLA-B*08:01
ASSAY TEXT: IEDB peptide-MHC binding, purified MHC/direct/fluorescence; filed as Kd, often an IC50 or EC50 that approximates it; bounds were set here for any values at or beyond the usual limits of such assays
CONDITION SUMMARY: source organism: Escherichia coli O157:H7
pKd: −log10 of the molar value.
Reported pKd values for a set of sequences

Known results for sequences:
seq_text=RVNKGTGVK reported_measurement="≤ 4.70"
seq_text=KTTIKFHPW reported_measurement="≤ 4.70"

Query sequence follows.
Dear colleague, I am looking for the recorded pKd of the following sequence: `LQLTAVFAY`
≤ 4.70

* * *

ASSAYED SYSTEM: HLA-B*46:01
ASSAY TEXT: IEDB peptide-MHC binding, purified MHC/competitive/fluorescence; filed as Kd, often an IC50 or EC50 that approximates it; bounds were set here for any values at or beyond the usual limits of such assays
CONDITION SUMMARY: source organism: Shigella flexneri 5 str. 8401
pKd: −log10 of the molar value.
ENDPOINT: pKd

Dear colleague, I am looking for the recorded pKd of the following sequence: `LAMYHGQTY`
≤ 4.70

* * *

ASSAYED SYSTEM: HLA-A*02:03
ASSAY TEXT: IEDB peptide-MHC binding, purified MHC/competitive/radioactivity; filed as Kd, often an IC50 or EC50 that approximates it; bounds were set here for any values at or beyond the usual limits of such assays
CONDITION SUMMARY: source organism: Dengue virus 1 Brazil/97-11/1997
ENDPOINT: Kd (nM)
State just the number; it will be interpreted in nM.

seq_text=PLNEGIMAI endpoint=Kd reported_measurement=63.8

Dear colleague, I am looking for the recorded Kd of the following sequence: `ELMRRGDLPV`
139

Dear colleague, I am looking for the recorded Kd of the following sequence: `GMVTLYLGV`
12.4

Dear colleague, I am looking for the recorded Kd of the following sequence: `GLAMGIMML`
0.67

* * *

ASSAYED SYSTEM: HLA-B*07:02
ASSAY TEXT: IEDB peptide-MHC binding, purified MHC/competitive/fluorescence; filed as Kd, often an IC50 or EC50 that approximates it; bounds were set here for any values at or beyond the usual limits of such assays
CONDITION SUMMARY: source organism: Influenza A virus (A/duck/Bavaria/1/1977(H1N1))
ENDPOINT: Kd
Please make sure the unit comes right after the number.

Dear colleague, I am looking for the recorded Kd of the following sequence: `LPFQNIHPITI`
57.4 nM

* * *

ASSAYED SYSTEM: HLA-A*02:01
ASSAY TEXT: IEDB peptide-MHC binding, purified MHC/direct/fluorescence; filed as Kd, often an IC50 or EC50 that approximates it; bounds were set here for any values at or beyond the usual limits of such assays
CONDITION SUMMARY: source organism: Lassa virus Josiah
ENDPOINT: pKd
In simple prose, pKd is minus the logarithm base ten of a concentration in moles per litre.

Dear colleague, I am looking for the recorded pKd of the following sequence: `SLIPDATHL`
7.74

* * *

ASSAYED SYSTEM: HLA-B*07:02
ASSAY TEXT: IEDB peptide-MHC binding, purified MHC/direct/fluorescence; filed as Kd, often an IC50 or EC50 that approximates it; bounds were set here for any values at or beyond the usual limits of such assays
CONDITION SUMMARY: source organism: Marburg virus - Musoke, Kenya, 1980
pKd: −log10 of the molar value.
Reported pKd values for a set of sequences

seq_text=NQQVTNSKY assayed_system=HLA-B*07:02 endpoint=pKd reported_measurement="≤ 4.70"

Dear colleague, I am looking for the recorded pKd of the following sequence: `ARHGEYAPF`
≤ 4.70

* * *

ASSAYED SYSTEM: HLA-B*54:01
ASSAY TEXT: IEDB peptide-MHC binding, purified MHC/competitive/radioactivity; filed as Kd, often an IC50 or EC50 that approximates it; bounds were set here for any values at or beyond the usual limits of such assays
CONDITION SUMMARY: source organism: Hepatitis C virus (isolate H)
ENDPOINT: Kd

Dear colleague, I am looking for the recorded Kd of the following sequence: `HPALVFDIT`
285 pM

* * *

ASSAYED SYSTEM: HLA-B*27:05
ASSAY TEXT: IEDB peptide-MHC binding, purified MHC/direct/fluorescence; filed as Kd, often an IC50 or EC50 that approximates it; bounds were set here for any values at or beyond the usual limits of such assays
CONDITION SUMMARY: source organism: Escherichia coli O157:H7
pKd: −log10 of the molar value.
Reported pKd values for a set of sequences

seq_text=KTTIKFHPW endpoint=pKd reported_measurement="≤ 4.70"

Dear colleague, I am looking for the recorded pKd of the following sequence: `LQLTAVFAY`
7.04

Dear colleague, I am looking for the recorded pKd of the following sequence: `LDKGKLWHL`
≤ 4.70

Dear colleague, I am looking for the recorded pKd of the following sequence: `RVNKGTGVK`
≤ 4.70

* * *

ASSAYED SYSTEM: HLA-A*29:02
ASSAY TEXT: IEDB peptide-MHC binding, purified MHC/direct/fluorescence; filed as Kd, often an IC50 or EC50 that approximates it; bounds were set here for any values at or beyond the usual limits of such assays
CONDITION SUMMARY: source organism: Mycobacterium tuberculosis
pKd: −log10 of the molar value.
ENDPOINT: pKd

Query pKd on HLA-A*29:02 for `SQAFNTPAL`
≤ 4.70

* * *

Reported Kd values for a set of sequences
ASSAYED SYSTEM: HLA-B*51:01
ASSAY TEXT: IEDB peptide-MHC binding, purified MHC/competitive/radioactivity; filed as Kd, often an IC50 or EC50 that approximates it; bounds were set here for any values at or beyond the usual limits of such assays
CONDITION SUMMARY: source organism: Triticum aestivum
State just the number; it will be interpreted in µM.

seq_text=IPCMDVVL unit_abbreviation=µM reported_measurement=1.3

Query sequence follows.
Dear colleague, I am looking for the recorded Kd of the following sequence: `YPQPQPQY`
19.5
